test system: LOX IMVI; experiment: NCI tumour cell line growth inhibition, 48 h
Activity calls are given as the source filed them. Cut-off read from the data, not from the text of the source: active = GI50 up to about 1.1 µM and inactive = higher.
Outcomes: y (active), n (inactive)

[
  {
    "molecule": "CC(C)(C)c1cc(C(P(=O)(c2ccccc2)c2ccccc2)P(=O)(c2ccccc2)c2ccccc2)cc(C(C)(C)C)c1O",
    "assay system": "LOX IMVI",
    "discrete label": "n"
  },
  {
    "molecule": "C[C@H]1CC[C@]2(NC1)O[C@H]1C[C@H]3[C@@H]4CC[C@H]5C[C@@H](O[C@@H]6O[C@H](CO)[C@H](O[C@@H]7O[C@H](CO)[C@@H](O)[C@H](O[C@@H]8OC[C@@H](O)[C@H](O)[C@H]8O)[C@H]7O[C@@H]7O[C@H](CO)[C@@H](O)[C@H](O)[C@H]7O)[C@H](O)[C@H]6O)CC[C@]5(C)[C@H]4CC[C@]3(C)[C@H]1[C@@H]2C [TOMATINE]",
    "assay system": "LOX IMVI",
    "discrete label": "n"
  },
  {
    "molecule": "COc1ccc2nc3cccc([N+](=O)[O-])c3c(NCCN(C)C)c2c1",
    "assay system": "LOX IMVI",
    "discrete label": "y"
  },
  {
    "molecule": "COC1(CC[C@@H](C)COC2OC(CO)C(O)C(O)C2O)OC2C[C@H]3[C@@H]4CC[C@H]5C[C@@H](OC6OC(CO)C(OC7OC(CO)C(O)C(O)C7O)C(O)C6OC6OC(C)C(O)C(O)C6O)[C@H](O)C[C@]5(C)[C@H]4CC[C@]3(C)C2[C@@H]1C (some centres undefined)",
    "assay system": "LOX IMVI",
    "discrete label": "n"
  }
]

###

test system: SK-MEL-2; assay: NCI tumour cell line growth inhibition, 48 h
Active and inactive are the calls of the source. No stated cut-off is given here; in the data, active = GI50 up to about 1.1 µM and inactive = higher.

[
  {
    "compound": "COC(=O)c1cc2c(o1)Sc1ccccc1NC2=O",
    "GI50": "> 100 µM (inactive)"
  },
  {
    "compound": "CC1(CCCCO)C=CC(S(=O)(=O)c2ccccc2)CC1 (configuration not stated)",
    "GI50": "11.1 µM (inactive)"
  },
  {
    "compound": "C[C@H](CCC(=O)O)[C@H]1CC[C@H]2[C@@H]3[C@H](O)[C@H](O)[C@@H]4C[C@H](O)CC[C@]4(C)[C@H]3CC[C@]12C [HYOCHOLIC ACID]",
    "GI50": "> 100 µM (inactive)"
  },
  {
    "compound": "Nc1nc(N)c2ncn(CCOC(c3ccccc3)P(=O)(O)O)c2n1 (configuration not stated)",
    "GI50": "> 100 µM (inactive)"
  },
  {
    "compound": "CCCCCCCOc1ccc(/C=C\\c2cc[n+](CCCCCCCC[n+]3ccc(/C=C\\c4ccc(OCCCCCCC)cc4)cc3)cc2)cc1",
    "GI50": "17.6 µM (inactive)"
  },
  {
    "compound": "CCCC(=O)[O-].[Na+] [SODIUM BUTYRATE]",
    "GI50": "4720 µM (inactive)"
  },
  {
    "compound": "COc1ccc(N(CN2C(=O)CCC2C(=O)O)C(C)=O)cc1 (configuration not stated)",
    "GI50": "> 100 µM (inactive)"
  },
  {
    "compound": "CC1(C)OC(C(C)(C)O)C(C(C)(C)O)O1 (configuration not stated)",
    "GI50": "> 100 µM (inactive)"
  },
  {
    "compound": "Cn1c(=O)c2nc3c4ccccc4c(=O)n(C)c3nc2n(C)c1=O",
    "GI50": "> 100 µM (inactive)"
  },
  {
    "compound": "NC(=S)NN=C1Cc2ccccc2C1",
    "GI50": "> 100 µM (inactive)"
  },
  {
    "compound": "N=C(NCc1ccccc1)N/N=C\\c1ccnc2ccccc12",
    "GI50": "9.73 µM (inactive)"
  },
  {
    "compound": "O=C1N2Cc3c4ccc5c3CN3C(=O)N6Cc7c(ccc(c7CN1C6(c1ccccc1)C23c1ccccc1)OCCOCCNCCOCCO4)OCCOCCNCCOCCO5 (configuration not stated)",
    "GI50": "59.7 µM (inactive)"
  },
  {
    "compound": "COc1cc(/C=C(/C#N)C(N)=O)ccc1O",
    "GI50": "> 70.8 µM (inactive)"
  },
  {
    "compound": "O=C(O)Cc1ccc(Oc2nc3ccccc3nc2C(=O)O)cc1",
    "GI50": "> 100 µM (inactive)"
  },
  {
    "compound": "Cc1ccc2nc(/C(=C/c3ccc(/C=C(\\NC(=O)c4ccccc4)c4nc5ccc(C)cc5[nH]4)c(C)c3)NC(=O)c3ccccc3)[nH]c2c1",
    "GI50": "5.13 µM (inactive)"
  },
  {
    "compound": "COC(=O)CCC(NC(=O)C(C)NC(=O)COC1C(O)C(OC(=O)CCNc2c3ccccc3nc3cccc([N+](=O)[O-])c23)OC(OCc2ccccc2)C1NC(C)=O)C(N)=O (configuration not stated)",
    "GI50": "1.93 µM (inactive)"
  },
  {
    "compound": "COC1=N[C@H](C(C)C)C(OC)=N[C@H]1Cc1ccc(C[C@@H]2N=C(OC)[C@@H](C(C)C)N=C2OC)s1",
    "GI50": "14.3 µM (inactive)"
  },
  {
    "compound": "CCN(CC)c1ccc(/N=N\\c2ccc(-c3nc4ccc[n+](C)c4s3)cc2)cc1",
    "GI50": "7.83 µM (inactive)"
  },
  {
    "compound": "CC1(C)CC(=O)C(CC(C(=O)C(=O)Nc2cc(C(F)(F)F)ccc2Cl)C(=O)c2ccco2)C(=O)C1 (configuration not stated)",
    "GI50": "> 100 µM (inactive)"
  },
  {
    "compound": "O=[N+]([O-])c1ccc2nc3ccscc-3c2c1",
    "GI50": "6.75 µM (inactive)"
  },
  {
    "compound": "CC1(C23CC4CC(CC(C4)C2)C3)n2c(=O)n(-c3ccccc3)c(=O)n2C1(C)C12CC3CC(CC(C3)C1)C2 (configuration not stated)",
    "GI50": "> 100 µM (inactive)"
  },
  {
    "compound": "CC1CCC2C(C)C(=O)OC3OC4(C)CCC1C32OO4 (configuration not stated)",
    "GI50": "> 100 µM (inactive)"
  },
  {
    "compound": "CCOC(=O)C1=C(Nc2ccc(NC3=C(C(=O)OCC)C(=O)CS3)cc2)SCC1=O",
    "GI50": "16.5 µM (inactive)"
  },
  {
    "compound": "CC1=NC2=Nc3nc(C)cc[n+]3CN2C=C1",
    "GI50": "> 100 µM (inactive)"
  },
  {
    "compound": "CSc1ccc(C2C(Cl)C(=O)N2NC(=O)c2c(Cl)c(Cl)c(Cl)c(Cl)c2-c2nc3ccccc3[nH]2)cc1 (configuration not stated)",
    "GI50": "31.6 µM (inactive)"
  },
  {
    "compound": "CC1=C(C)SC(=C2Sc3c(n(C)c(=O)n(C)c3=O)S2)S1",
    "GI50": "22.3 µM (inactive)"
  },
  {
    "compound": "COc1ccc(C(=O)N2CCN(c3ccc4c(c3)OCC(=O)N4)CC2)cc1",
    "GI50": "> 100 µM (inactive)"
  },
  {
    "compound": "CCn1c(-c2ccc(/N=N/Nc3ccc(-c4n[nH]c(=S)n4CC)cc3)cc2)n[nH]c1=S",
    "GI50": "1.68 µM (inactive)"
  },
  {
    "compound": "C=CCn1c2ccccc2c2c(C)c3cnccc3c(C)c21",
    "GI50": "15.8 µM (inactive)"
  },
  {
    "compound": "COc1cc(-c2ccc(/N=N/c3ccc4c(S(=O)(=O)O)cc(S(=O)(=O)O)c(N)c4c3O)c(OC)c2)ccc1/N=N/c1ccc2c(S(=O)(=O)O)cc(S(=O)(=O)O)c(N)c2c1O",
    "GI50": "> 100 µM (inactive)"
  },
  {
    "compound": "CC(C)(C)c1cc(C2=NN(c3ccccc3)C(c3ccccc3)C2)cc(C(C)(C)C)c1O (configuration not stated)",
    "GI50": "> 100 µM (inactive)"
  },
  {
    "compound": "Cc1cccc(C)c1NC(=O)CCCC(=O)CC(=O)/C=C/c1ccccc1",
    "GI50": "> 100 µM (inactive)"
  },
  {
    "compound": "CCOC(=O)c1c(N2CCCC2)nsc1Nc1ccc(F)cc1",
    "GI50": "19.2 µM (inactive)"
  },
  {
    "compound": "CC(=O)CCC[C@@H](C)[C@@H]1O[C@H]([C@@]2(C)CCC(=O)O2)C[C@H]2C(CSc3ccccc3)C(=O)O[C@@H]12 (some centres not stated)",
    "GI50": "17.3 µM (inactive)"
  },
  {
    "compound": "O=C(O)CN(CC(=O)O)C1CCCCC1N(CC(=O)O)CC(=O)NCCN=C=S (configuration not stated)",
    "GI50": "> 100 µM (inactive)"
  },
  {
    "compound": "CC(C)(C)OC(=O)N[C@@H](Cc1ccccc1)C(=O)N1CC[C@@H](C(=O)N2[C@H]3CC4CC[C@@]3(CS2(=O)=O)C4(C)C)N1",
    "GI50": "61.7 µM (inactive)"
  },
  {
    "compound": "Clc1c(Cl)c(Cl)c2nn(C3CCCO3)nc2c1Cl (configuration not stated)",
    "GI50": "68.1 µM (inactive)"
  }
]
